Experimental target: hMC4-R (HEK-293 cells) (Homo sapiens, UniProt P32245)
Construct: expressed in transfected cells; host or cells: HEK-293
Sequence (P32245 whole entry): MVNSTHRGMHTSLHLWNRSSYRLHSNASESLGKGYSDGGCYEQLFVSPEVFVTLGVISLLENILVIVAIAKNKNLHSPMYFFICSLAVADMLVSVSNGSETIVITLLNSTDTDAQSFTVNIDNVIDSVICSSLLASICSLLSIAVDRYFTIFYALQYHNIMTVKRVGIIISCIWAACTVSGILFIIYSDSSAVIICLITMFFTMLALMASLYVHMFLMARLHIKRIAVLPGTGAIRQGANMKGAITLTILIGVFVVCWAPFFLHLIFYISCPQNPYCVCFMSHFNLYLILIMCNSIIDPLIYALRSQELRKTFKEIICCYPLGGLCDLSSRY
Assay comment: cAMP functional assay for agonist/antagonist status, MC4-R
Type: cell-based
Condition context: cAMP accumulation
Procedure: Functional evaluation of peptides at melanocortin receptors was performed by measuring the accumulation of intracellular cAMP in HEK-293 cells expressing hMC3-R, hMC4-R or hMC5-R, and in B-16 mouse melanoma cells expressing MC1-R. Cells suspended in Earle's Balanced Salt Solution containing 10 mM HEPES (pH 7.5), 5 mM MgCl2, 1 mM glutamine, 0.5% albumin and 0.3 mM 3-isobutyl-1-methyl-xanthine, a phosphodiesterase inhibitor, were plated in 96 well plates at a density of 0.5×10^5 cells per well. […]
pEC50: −log10 of the molar value. Where a SMILES comes first, the peptide text is derived from it. Bridges are numbered along the chain shown (N, C = ends). [ ]: non-standard residue; d: D form. 1Nal = N[C@@H](Cc1cccc2ccccc12)C(=O)O
Outcome measure: pEC50

[[record]]
compound = "CCNC(=O)[C@@H]1CCCCNC(=O)C[C@H](NC(C)=O)C(=O)N[C@@H](Cc2c[nH]c3ccccc23)C(=O)N[C@H](Cc2ccccc2)C(=O)N[C@@H](CCCNC(=N)N)C(=O)N[C@@H](Cc2cccc3ccccc23)C(=O)N1 [Example 14] (Ac-DW[dF]R[1Nal]K-NHEt; lactam 1-6 (inferred))"
experimental_value = 6.16

[[record]]
compound = "CCCC[C@H](NC(C)=O)C(=O)N[C@H]1CC(=O)NCCCC[C@@H](C(=O)N(C)C)NC(=O)[C@H](Cc2c[nH]c3ccccc23)NC(=O)[C@H](CCCNC(=N)N)NC(=O)[C@@H](Cc2ccccc2)NC(=O)[C@H](Cc2c[nH]cn2)NC1=O"
experimental_value = 9.70


(a) CCCC[C@H](NC(C)=O)C(=O)N[C@H]1CC(=O)NCCCC[C@@H](C(=O)NCC)NC(=O)[C@H](Cc2c[nH]c3ccccc23)NC(=O)[C@H](CCCNC(=N)N)NC(=O)[C@@H](Cc2ccccc2)NC(=O)[C@H](Cc2c[nH]cn2)NC1=O
(b) CC(=O)N[C@H]1CC(=O)NCCCC[C@@H](C(=O)N(C)C)NC(=O)[C@H](Cc2c[nH]c3ccccc23)NC(=O)[C@H](CCCNC(=N)N)NC(=O)[C@@H](Cc2ccccc2)NC(=O)[C@H](Cc2c[nH]cn2)NC1=O
-- ask Short answer wanted: higher pEC50, a or b ? Answer with the label corresponding to your selection.
-- reply a
